- Subject of test: T1, human amylin receptor (AMY3) on CHO-K1/Ga15/AMY3 cells (human, UniProt P30988 25-474; O60896 24-148)
- T1 sequence (looked up) 1: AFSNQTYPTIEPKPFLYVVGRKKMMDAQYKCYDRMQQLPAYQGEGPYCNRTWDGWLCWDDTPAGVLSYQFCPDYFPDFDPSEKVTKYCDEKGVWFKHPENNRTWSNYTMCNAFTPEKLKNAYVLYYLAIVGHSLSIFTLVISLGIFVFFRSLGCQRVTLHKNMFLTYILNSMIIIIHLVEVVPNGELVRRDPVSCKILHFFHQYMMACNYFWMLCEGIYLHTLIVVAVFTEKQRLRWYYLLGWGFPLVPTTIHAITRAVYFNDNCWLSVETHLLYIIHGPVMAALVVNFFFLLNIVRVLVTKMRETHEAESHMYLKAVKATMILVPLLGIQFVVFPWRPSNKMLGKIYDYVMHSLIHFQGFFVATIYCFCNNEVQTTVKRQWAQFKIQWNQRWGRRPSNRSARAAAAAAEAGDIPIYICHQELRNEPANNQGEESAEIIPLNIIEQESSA
- T1 sequence (looked up) 2: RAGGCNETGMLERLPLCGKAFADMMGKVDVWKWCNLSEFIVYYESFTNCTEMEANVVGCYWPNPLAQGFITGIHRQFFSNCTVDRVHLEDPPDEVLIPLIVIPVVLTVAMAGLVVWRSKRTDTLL
- Experimental protocol: cell-based or functional assay
*1 amine or outer side, *2 acyl side, *3 side chain or, on linkers, in order; H or OH if unused. Bridges are numbered along the chain shown (N, C = ends). Where no end group is shown, it is not given here. Side-chain parts run from the residue outwards. [ ]: non-standard residue; d: D form. The star is where a group is joined. C20 diacid = O=C(O)CCCCCCCCCCCCCCCCCCC(=O)*; C18 diacid = O=C(O)CCCCCCCCCCCCCCCCC(=O)*; γGlu = O=C(O)[C@H](CCC(=O)[*:2])N[*:1]; Hyp = O=C(O)[C@@H]1C[C@@H](O)CN1; AEEA = NCCOCCOCC(=O)O
Lab note - cut at 0.1 nM for EC50, CRE-luciferase assay: condition met if strictly below, condition not met if not.

## Input In the record for RCNTATCATQRLADFLRHSSNNLGK([AEEA-γGlu-C18 diacid])ILPPTNVGSNT[Hyp]-NH2 (disulfide 2-7 (inferred)) [PD121] , is EC50, CRE-luciferase assay less than 0.1 nM?
## Output condition met

## Input In the record for RCNTATCATQRLAEFLRHSSNNLK([γGlu-C20 diacid])PILPPTNVGSNT[cis‑Hyp]-NH2 (disulfide 2-7 (inferred)) [PD055] , is EC50, CRE-luciferase assay less than 0.1 nM?
## Output condition not met

## Input In the record for RCNTATCATQRLADFLRHSSNNLGK([γGlu-C18 diacid])ILPPTNVGSNT[Hyp]-NH2 (disulfide 2-7 (inferred)) [PD104] , is EC50, CRE-luciferase assay less than 0.1 nM?
## Output condition met

## Input In the record for K([γGlu-C20 diacid])CNTATCATQRLADFLRHSSNNFGPILPPTNVGSNT[Hyp]-NH2 (disulfide 2-7 (inferred)) [PD068] , is EC50, CRE-luciferase assay less than 0.1 nM?
## Output condition met
